src = patent US10975119B2

Would you mind telling me the reported inhibition at 10 µM of each entry?
Target: Caspase-4 (Homo sapiens, UniProt P49662)
Construct: mixing the compounds with the respective active caspases; purchased BioVision K154-100
Sequence (P49662 81-270 limits assumed): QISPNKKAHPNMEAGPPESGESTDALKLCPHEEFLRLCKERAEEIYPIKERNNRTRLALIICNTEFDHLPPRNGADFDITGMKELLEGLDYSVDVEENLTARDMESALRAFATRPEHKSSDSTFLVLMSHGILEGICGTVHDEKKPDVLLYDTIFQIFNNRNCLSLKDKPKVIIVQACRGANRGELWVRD
Sequence (P49662 290-377 limits assumed): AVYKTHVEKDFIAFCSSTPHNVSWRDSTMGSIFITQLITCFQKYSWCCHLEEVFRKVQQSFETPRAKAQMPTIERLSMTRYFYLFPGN
Experiment: Caspase-4 inhibitor screening assay (BioVision kit, LEVD-AFC)
Assay type: biochemical
Conditions: read-out: % Inhibition at 10 uM Casp4
One number for each entry, in %.

{"compound": "CS(=O)(=O)/C=C/[C@H](CC(=O)O)NC(=O)[C@H](CCC(=O)O)NC(=O)c1ccc2ccccc2n1", "measurementKind": "inhibition at 10 µM", "unitText": "%", "quantitativeResult": 0}
{"compound": "CC(C)[C@H](NC(=O)OCc1ccccc1)C(=O)N[C@H](/C=C(\\Cl)S(C)(=O)=O)CC(=O)O", "measurementKind": "inhibition at 10 µM", "unitText": "%", "quantitativeResult": 0}
{"compound": "CS(=O)(=O)/C=C/[C@H](CC(=O)O)NC(=O)[C@H]1CCC(=O)N1", "measurementKind": "inhibition at 10 µM", "unitText": "%", "quantitativeResult": 1}
{"compound": "CC(C)(C)[C@@H](NC(=O)[C@H](CC(=O)O)NC(=O)OCc1ccccc1)C(=O)N1CC[C@@H]1C(=O)N[C@H](/C=C/S(C)(=O)=O)CC(=O)O", "measurementKind": "inhibition at 10 µM", "unitText": "%", "quantitativeResult": 76}
{"compound": "CC(C)(C)OC(=O)CC[C@H](NC(=O)OC(C)(C)C)C(=O)N[C@H](/C=C/S(C)(=O)=O)CC(=O)OC(C)(C)C", "measurementKind": "inhibition at 10 µM", "unitText": "%", "quantitativeResult": 0}

Look at each compound and report its inhibition at 10 µM.
1. CC(C)(C)[C@H](NC(=O)c1ccc2ncccc2c1)C(=O)N1CCCC1C(=O)N[C@H](/C=C/S(C)(=O)=O)CC(=O)O (stereo in doubt)
2. CS(=O)(=O)/C=C/[C@H](CC(=O)O)NC(=O)[C@@H](N)CCC(=O)O

Response line:
1: 91; 2: 0

###

Target: Caspase-3 (Homo sapiens)
Construct: mixing the compounds with the respective active caspases; purchased BioVision K153-100
Sequence (P42574 29-175 limits assumed): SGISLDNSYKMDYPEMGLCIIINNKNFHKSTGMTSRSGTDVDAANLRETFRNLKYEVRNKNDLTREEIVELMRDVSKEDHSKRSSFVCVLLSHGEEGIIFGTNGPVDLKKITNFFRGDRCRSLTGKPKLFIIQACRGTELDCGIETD
Sequence (P42574 176-277 limits assumed): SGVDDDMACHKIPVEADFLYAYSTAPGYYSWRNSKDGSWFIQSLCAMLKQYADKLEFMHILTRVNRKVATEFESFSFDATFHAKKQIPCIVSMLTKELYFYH
Experiment: Caspase-3 inhibitor screening assay (BioVision kit, DEVD-AFC)
Assay type: biochemical
Settings: read-out: IC50 Casp3
pIC50: −log10 of the molar value.
measurementKind: pIC50

Use these answered entries as a reference point.
{"compound": "CS(=O)(=O)/C=C/[C@H](CC(=O)O)NC(=O)[C@H](CCC(=O)O)NC(=O)c1ccc2ccccc2n1 [Compound 18]", "result": "< 4.00"}
{"compound": "CC(C)[C@H](NC(=O)[C@H](Cc1cn(C)c2ccccc12)NC(=O)[C@H](CC(=O)O)NC(=O)OCc1ccccc1)C(=O)N[C@H](/C=C/S(C)(=O)=O)CC(=O)O [Compound 36]", "result": 7.05}

The compound CC(C)(C)[C@H](NC(=O)c1ccc2ccccc2n1)C(=O)N1CC[C@@H]1C(=O)N[C@H](/C=C/S(C)(=O)=O)CC(=O)O [Compound 20] showed pIC50 equal to < 4.00

###

Would you mind telling me the reported inhibition at 100 µM of each entry?
Molecular target: Caspase-5 (Homo sapiens, UniProt P51878)
Construct: mixing the compounds with the respective active caspases; purchased BioVision K155-100
Sequence (P51878 137-327 limits assumed): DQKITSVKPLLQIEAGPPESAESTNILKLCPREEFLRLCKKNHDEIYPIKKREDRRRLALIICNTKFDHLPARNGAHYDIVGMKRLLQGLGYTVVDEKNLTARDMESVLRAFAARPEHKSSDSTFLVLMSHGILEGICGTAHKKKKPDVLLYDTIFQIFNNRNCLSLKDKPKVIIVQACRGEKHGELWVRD
Sequence (P51878 347-434 limits assumed): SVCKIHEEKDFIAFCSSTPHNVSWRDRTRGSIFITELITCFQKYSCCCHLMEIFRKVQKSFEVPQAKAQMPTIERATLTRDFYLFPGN
Test: Caspase-5 inhibitor screening assay (BioVision kit, WEHD-AFC)
Assay type: biochemical
Conditions: read-out: % Inhibition at 100 uM Casp5

Use these answered entries as a reference point.
{"smi": "CC(C)[C@H](NC(=O)[C@H](CCC(=O)O)NC(=O)[C@H](Cc1c[nH]c2ccccc12)NC(=O)OCc1ccccc1)C(=O)N[C@H](/C=C/S(C)(=O)=O)CC(=O)O", "measuredOn": "Caspase-5 (Homo sapiens, UniProt P51878)", "result": "100%"}
{"smi": "CS(=O)(=O)/C=C/[C@H](CC(=O)O)NC(=O)[C@@H](N)CCC(=O)O", "measuredOn": "Caspase-5 (Homo sapiens, UniProt P51878)", "result": "0%"}
{"smi": "CCOC(=O)/C=C/[C@H](CC(=O)O)NC(=O)[C@@H](NC(=O)[C@@H](NC(=O)[C@H](CC(=O)O)NC(=O)OCc1ccccc1)c1ccccc1)C(C)C", "measuredOn": "Caspase-5 (Homo sapiens, UniProt P51878)", "result": "41%"}
{"smi": "CC(C)(C)[C@H](NC(=O)c1ccc2ccccc2n1)C(=O)N1CC[C@@H]1C(=O)N[C@H](/C=C/S(C)(=O)=O)CC(=O)O", "measuredOn": "Caspase-5 (Homo sapiens, UniProt P51878)", "result": "96%"}

Pending compound:
The compound CC(C)[C@H](NC(=O)OCc1ccccc1)C(=O)N[C@H](/C=C(\Cl)S(C)(=O)=O)CC(=O)O showed inhibition at 100 µM equal to 12%

###

Would you mind telling me the reported IC50 of each entry?
Target: Caspase-6 (Homo sapiens, UniProt P55212)
Construct: mixing the compounds with the respective active caspases; purchased BioVision K156-100
Sequence (P55212 24-179 limits assumed): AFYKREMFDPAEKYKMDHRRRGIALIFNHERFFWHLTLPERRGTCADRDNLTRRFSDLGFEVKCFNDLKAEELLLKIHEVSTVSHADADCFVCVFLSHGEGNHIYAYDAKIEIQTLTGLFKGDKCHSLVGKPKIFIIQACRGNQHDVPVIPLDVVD
Sequence (P55212 194-293 limits assumed): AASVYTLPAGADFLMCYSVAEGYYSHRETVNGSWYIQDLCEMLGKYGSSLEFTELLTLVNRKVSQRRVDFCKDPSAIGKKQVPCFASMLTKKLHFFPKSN
Test: Caspase-6 inhibitor screening assay (BioVision kit, VEID-AFC)
Assay type: biochemical
Settings: read-out: IC50 Casp6

Use these answered entries as a reference point.
{"compound": "CC(C)(C)[C@@H](NC(=O)[C@H](CC(=O)O)NC(=O)OCc1ccccc1)C(=O)N1CC[C@@H]1C(=O)N[C@H](/C=C/S(C)(=O)=O)CC(=O)O", "measuredOn": "Caspase-6 (Homo sapiens, UniProt P55212)", "IC50": "> 100 µM"}
{"compound": "CC(C)(C)[C@H](NC(=O)c1ccc(N)c(Cl)c1)C(=O)N1CCCC1C(=O)N[C@H](/C=C/S(C)(=O)=O)CC(=O)O (stereo in doubt)", "measuredOn": "Caspase-6 (Homo sapiens, UniProt P55212)", "IC50": "> 100 µM"}

Pending compound:
# CS(=O)(=O)/C=C/[C@H](CC(=O)O)NC(=O)[C@H]1CCC(=O)N1 with Caspase-6 (Homo sapiens, UniProt P55212): IC50 is > 100 µM

###

Biological target: Caspase-5 (Homo sapiens)
Construct: mixing the compounds with the respective active caspases; purchased BioVision K155-100
Assay: Caspase-5 inhibitor screening assay (BioVision kit, WEHD-AFC)
Assay type: biochemical
Settings: read-out: % Inhibition at 10 uM Casp5
measurementKind: inhibition at 10 µM (%)
One number for each entry, in %.

Use these answered entries as a reference point.
{"compound": "CC(C)[C@H](NC(=O)OCc1ccccc1)C(=O)N[C@H](/C=C(\\Cl)S(C)(=O)=O)CC(=O)O", "measurementKind": "inhibition at 10 µM", "quantitativeResult": 10}
{"compound": "CC(C)(C)[C@H](NC(=O)c1ccc(N)c(Cl)c1)C(=O)N1CCCC1C(=O)N[C@H](/C=C/S(C)(=O)=O)CC(=O)O (stereo in doubt)", "measurementKind": "inhibition at 10 µM", "quantitativeResult": 96}
{"compound": "CC(C)[C@H](NC(=O)[C@H](CCC(=O)O)NC(=O)[C@H](Cc1c[nH]c2ccccc12)NC(=O)OCc1ccccc1)C(=O)N[C@H](/C=C/S(C)(=O)=O)CC(=O)O", "measurementKind": "inhibition at 10 µM", "quantitativeResult": 95}
{"compound": "CS(=O)(=O)/C=C/[C@H](CC(=O)O)NC(=O)[C@H]1CCC(=O)N1", "measurementKind": "inhibition at 10 µM", "quantitativeResult": 0}

Pending compound:
The compound CS(=O)(=O)/C(Cl)=C/[C@@H](N)CC(=O)O showed inhibition at 10 µM equal to 0

###

Would you mind telling me the reported inhibition at 10 µM of each entry?
Biological target: Caspase-6 (Homo sapiens, UniProt P55212)
Construct: mixing the compounds with the respective active caspases; purchased BioVision K156-100
Sequence (P55212 24-179 limits assumed): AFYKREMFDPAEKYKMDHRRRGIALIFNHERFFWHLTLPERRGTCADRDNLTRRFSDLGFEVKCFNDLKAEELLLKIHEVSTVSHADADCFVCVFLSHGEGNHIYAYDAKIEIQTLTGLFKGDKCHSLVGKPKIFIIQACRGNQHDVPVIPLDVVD
Sequence (P55212 194-293 limits assumed): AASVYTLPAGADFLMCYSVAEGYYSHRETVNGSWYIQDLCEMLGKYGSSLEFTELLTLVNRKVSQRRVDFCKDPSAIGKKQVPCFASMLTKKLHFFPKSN
Test: Caspase-6 inhibitor screening assay (BioVision kit, VEID-AFC)
Assay type: biochemical
Details: read-out: % Inhibition at 10 uM Casp6
Text: […]
Answers are plain numbers, in %.

Use these answered entries as a reference point.
{"molecule": "CC(C)[C@H](NC(=O)OCc1ccccc1)C(=O)N[C@H](/C=C(\\Cl)S(C)(=O)=O)CC(=O)O [Compound 2]", "measurementKind": "inhibition at 10 µM", "quantitativeResult": 1}
{"molecule": "CS(=O)(=O)/C=C/[C@H](CC(=O)O)NC(=O)[C@H]1CCC(=O)N1 [Compound 24]", "measurementKind": "inhibition at 10 µM", "quantitativeResult": 0}
{"molecule": "CC(C)(C)[C@H](NC(=O)c1ccc2ncccc2n1)C(=O)N1CCCC1C(=O)N[C@H](/C=C/S(C)(=O)=O)CC(=O)O (stereo in doubt) [Compound 8]", "measurementKind": "inhibition at 10 µM", "quantitativeResult": 2}
{"molecule": "CC(C)(C)[C@H](NC(=O)[C@H](CC(=O)O)NC(=O)OCc1ccccc1)C(=O)N1CCCC1C(=O)N[C@H](/C=C/S(C)(=O)=O)CC(=O)O (stereo in doubt) [Compound 26, Z-Asp-t-Leu-Pro-Asp-methyl vinyl sulfone]", "measurementKind": "inhibition at 10 µM", "quantitativeResult": 0}

Look at each molecule and report its inhibition at 10 µM.
1. CC(C)(C)[C@H](NC(=O)c1ccc2ccccc2n1)C(=O)N1CCC[C@@H]1C(=O)N[C@H](/C=C/S(C)(=O)=O)CC(=O)O [Compound 6]
2. CCC(C)[C@H](NC(=O)[C@H](CCC(=O)O)NC(=O)[C@@H](NC(=O)OCc1ccccc1)C(C)C)C(=O)N[C@H](/C=C/S(C)(=O)=O)CC(=O)O (stereo partly drawn) [Compound 38, Z-Val-Glu-Ile-Asp-methyl vinyl sulfone]

Response line:
1: 0; 2: 88
